Items are presented alongside their recorded protein stability index.
B1: ARL6IP1 (parent)
chain: YLDPSVLSGVSCFVMFLCLADYLV

variants of: B1; assay: protein stability index of a GFP-peptide fusion (GPS, HEK-293T) (PSI 1-6); higher = more stable; details: c terminus: a fixed tail appended;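 further: lentivirally expressed fusions sorted by FACS into six bins by GFP to DsRed ratio, PSI derived from sequencing read proportions per bin multiplied by bin number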
Please state the value as a number alone, without comment.

QUERY: Identify protein stability index associated with the variant YLDPSVYSGVSCFVMFLCLADYLV [L7Y]
RESULT: 2.89

QUERY: Identify protein stability index associated with the variant YLDPSVLCGVSCFVMFLCLADYLV [S8C]
RESULT: 3.59

QUERY: Identify protein stability index associated with the variant YLDPSVLSGVSPFVMFLCLADYLV [C12P]
RESULT: 3.54

QUERY: Identify protein stability index associated with the variant YLDPSVLGGVSCFVMFLCLADYLV [S8G]
RESULT: 3.79

QUERY: Identify protein stability index associated with the variant YLDPSVLSGVSCTVMFLCLADYLV [F13T]
RESULT: 4.33

QUERY: Identify protein stability index associated with the variant YLDPSVLSGVSCFTMFLCLADYLV [V14T]
RESULT: 2.04

QUERY: Identify protein stability index associated with the variant YLDPSVLSGVSCFVMLLCLADYLV [F16L]
RESULT: 2.62

QUERY: Identify protein stability index associated with the variant YLDPSVLSGVSCFVMFLCLADYLS [V24S]
RESULT: 2.53

QUERY: Identify protein stability index associated with the variant YLDPSVLSGVSCFVMFLCLADKLV [Y22K]
RESULT: 3.93

QUERY: Identify protein stability index associated with the variant YLDPSDLSGVSCFVMFLCLADYLV [V6D]
RESULT: 2.36

QUERY: Identify protein stability index associated with the variant YLDPSVLSGVSCFVMFLCLVDYLV [A20V]
RESULT: 1.63
